- Target Of Assay: UniProt P21554
- Assay Protocol: In-vitro efficacy and potency at the human CB1 receptor expressed in CHO cells (luciferase reporter gene assay)
- Assay Context: CHO cells expressing human CB1 receptor and luciferase reporter gene; 5 h incubation at 37° C.
Where a name gives a salt, the structure may show the parent alone.
Entries and their pEC50 values follow.
// field semantics: pEC50 = negative decimal log of concentration (mol/L)

Requested field: pEC50. Item: COc1cccc2c(-c3nnc(CN4CCCC4)s3)cn(CC3CCCCC3)c12 [Example 38, hydrochloride salt]
7.10

Requested field: pEC50. Item: CCN1Cc2snc(-c3cn(CC4CCCCC4)c4c(OC)cccc34)c2C1 [Example 33, hydrochloride salt]
7.10

Requested field: pEC50. Item: COCCN(Cc1csc(-c2cn(CC3CCCCC3)c3c(Cl)cccc23)n1)C(C)C [Example 20, hydrochloride salt]
8.30

Requested field: pEC50. Item: Clc1cccc2c(-c3nsc(CN4CCCC4)n3)cn(CC3CCOCC3)c12 [Example 15B, hydrochloride salt]
7.70

Requested field: pEC50. Item: CCN(CCO)Cc1nc(-c2cn(CC3CCOCC3)c3c(Cl)cccc23)ns1 [Example 15C]
8.00

----------
Entries and their EC50 values follow.
- Target Of Assay: human CB1 receptor (Homo sapiens, UniProt P21554)
- Construct: expressed in transfected cells; host or cells: Chinese Hamster Ovary (CHO) cells
- Sequence (P21554 whole entry): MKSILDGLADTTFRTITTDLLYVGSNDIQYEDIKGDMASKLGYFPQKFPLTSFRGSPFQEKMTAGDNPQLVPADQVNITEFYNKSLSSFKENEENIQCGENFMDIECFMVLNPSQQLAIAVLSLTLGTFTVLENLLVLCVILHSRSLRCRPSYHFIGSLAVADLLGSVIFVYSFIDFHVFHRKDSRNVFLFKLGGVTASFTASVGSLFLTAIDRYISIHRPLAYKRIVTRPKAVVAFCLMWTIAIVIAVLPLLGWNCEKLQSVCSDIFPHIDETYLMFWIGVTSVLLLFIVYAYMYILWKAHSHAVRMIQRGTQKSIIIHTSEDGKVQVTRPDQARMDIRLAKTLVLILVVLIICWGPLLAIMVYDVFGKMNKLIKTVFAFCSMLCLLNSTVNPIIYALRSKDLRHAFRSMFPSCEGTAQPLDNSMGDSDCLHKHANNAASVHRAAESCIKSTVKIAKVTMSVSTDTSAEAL
- Assay Protocol: In-vitro efficacy and potency at the human CB1 receptor expressed in CHO cells (luciferase reporter gene assay)
- Format: cell-based
- Assay Context: CHO cells expressing human CB1 receptor and luciferase reporter gene; 5 h incubation at 37° C.
Where a name gives a salt, the structure may show the parent alone.
Numbers only here, please. The scale is nM.

molecule="CC1(C)CCCN1Cc1nc(-c2cn(CC3CCOCC3)c3c(Cl)cccc23)no1 [Example 39, hydrochloride salt]" recorded_measurement=31.6

Requested field: EC50. Item: CCN(CC)Cc1nc(-c2cn3c4c(cccc24)OC[C@H]3C2CCCCC2)ns1 [Example 13, hydrochloride salt]
7.94

Requested field: EC50. Item: Fc1cccc2c(-c3nsc(CN4CCCC4)n3)cn(CC3CCOCC3)c12 [Example 14B, hydrochloride salt]
50.1

Requested field: EC50. Item: CCN(CCOC)Cc1nc(-c2cn(CC3CCOCC3)c3c(Cl)cccc23)ns1 [Example 15A, hydrochloride salt]
10

Requested field: EC50. Item: CCN(CC)Cc1ncc(-c2cn(CC3CCCCC3)c3c(OC)cccc23)o1 [Example 32, hydrochloride salt]
50.1

Requested field: EC50. Item: COc1cccc2c(-c3noc([C@H]4CCCN4C)n3)cn(CC3CCCCC3)c12 [Example 2G, hydrochloride salt]
31.6

These entries and their values trace back to patent US7700634B2.
